These data points were gathered from ChEMBL document CHEMBL1129793.

Record form. Attribute: Log 1/MMIC. Fill in for each entry.
# System: Mycobacterium kansasii
# procedure summary: In vitro activity against Mycobacterium kansasii (SWK)
# Format: functional
Keep the answer to the number alone.

Quick note, Log 1/MMIC for COC(=O)c1cnc(C)cn1 landed at 0.677

Quick note, Log 1/MMIC for O=C(OCc1ccccc1)c1cnccn1 landed at 2.331

Quick note, Log 1/MMIC for CC(C)COC(=O)c1cnccn1 landed at 1.052

Quick note, Log 1/MMIC for COC(=O)c1cnccn1 landed at 0.334

Quick note, Log 1/MMIC for COC(=O)c1cnc(OC)cn1 landed at 0.42

Quick note, Log 1/MMIC for CCC(C)OC(=O)c1cnccn1 (stereo unspecified) landed at 1.052

Quick note, Log 1/MMIC for COC(=O)c1cnc(F)cn1 landed at 1.29

Quick note, Log 1/MMIC for CCCCCCOC(=O)c1cnc(F)cn1 landed at 1.452

Quick note, Log 1/MMIC for CCCOC(=O)c1cnc(C)cn1 landed at 1.353

Quick note, Log 1/MMIC for CCCCCCC(C)OC(=O)c1cnc(F)cn1 (stereo unspecified) landed at 3.928

Quick note, Log 1/MMIC for CCCCCC(CC)OC(=O)c1cnc(C)cn1 (stereo unspecified) landed at 1.796

====

# procedure summary: Partition coefficient (logP)
# Format: physicochemical
# experimental parameters: octanol/water
readout label: logP
Keep the answer to the number alone.

Quick note, logP for CCCCCCCCC(C)(CCCC)OC(=O)c1cnc(Cl)cn1 (centres undefined) landed at 7.05

Quick note, logP for CCCCCC(C)OC(=O)c1cnc(Cl)cn1 (centres undefined) landed at 3

Quick note, logP for CCCCCCC(C)(CCCCC)OC(=O)c1cnc(Cl)cn1 (centres undefined) landed at 6.45

Quick note, logP for O=C(OCc1ccccc1)c1cnc(Cl)cn1 landed at 2.39

Quick note, logP for CCCCCCCCOC(=O)c1cnc(Cl)cn1 landed at 4.48

Quick note, logP for CCCCCCCC(C)OC(=O)c1cnc(Cl)cn1 (centres undefined) landed at 4.14

Quick note, logP for CCOC(=O)c1cnc(Cl)cn1 landed at 1.19

Quick note, logP for CCCCCC(CC)OC(=O)c1cnc(Cl)cn1 (centres undefined) landed at 4.24

Quick note, logP for CCCCCCC(C)(C)OC(=O)c1cnc(Cl)cn1 landed at 4.39

Quick note, logP for CCCCCCCCCC(C)OC(=O)c1cnc(Cl)cn1 (centres undefined) landed at 5.25

Quick note, logP for CCCCCC(CC)OC(=O)c1cnc(C)cn1 (centres undefined) landed at 3.72

Quick note, logP for COC(=O)c1cnc(C)cn1 landed at 0.15

Quick note, logP for CCCCCCCCC(CC)OC(=O)c1cnc(Cl)cn1 (centres undefined) landed at 5.99

Quick note, logP for CCCCCCCC(C)(CCCCC)OC(=O)c1cnc(Cl)cn1 (centres undefined) landed at 6.96

Quick note, logP for CC(C)COC(=O)c1cnccn1 landed at 1.07

Quick note, logP for CCCCCCCOC(=O)c1cnc(C)cn1 landed at 3.35

Quick note, logP for CCCCOC(=O)c1cnc(Cl)cn1 landed at 2.21

Quick note, logP for CCCCCCCCCCCC(C)OC(=O)c1cnc(Cl)cn1 (centres undefined) landed at 6.25

Quick note, logP for CCCCCOC(=O)c1cnc(Cl)cn1 landed at 2.73

Quick note, logP for CCCCCCC(CCCCCC)OC(=O)c1cnc(Cl)cn1 landed at 7.04

Quick note, logP for CCCCCCC(C)(CCCC)OC(=O)c1cnc(Cl)cn1 (centres undefined) landed at 5.93

Quick note, logP for CCCCCCCCCOC(=O)c1cnc(C)cn1 landed at 4.46

Quick note, logP for CCCCCC(C)(CCCC)OC(=O)c1cnc(Cl)cn1 (centres undefined) landed at 5.3

Quick note, logP for CCCCCCCCCCOC(=O)c1cnccn1 landed at 4.58

Quick note, logP for CCCCCCCCCC(C)(C)OC(=O)c1cnc(Cl)cn1 landed at 6.01

Quick note, logP for CCCCCCCC(C)(CCCC)OC(=O)c1cnc(Cl)cn1 (centres undefined) landed at 6.44

Quick note, logP for CCCCCCC(C)(CCCCCC)OC(=O)c1cnc(Cl)cn1 landed at 7.08

Quick note, logP for CCCCCCOC(=O)c1cnc(Cl)cn1 landed at 3.36

Quick note, logP for CCCCCCCCC(C)(C)OC(=O)c1cnc(Cl)cn1 landed at 5.51

Quick note, logP for CCCCCCCOC(=O)c1cnc(Cl)cn1 landed at 3.87

Quick note, logP for COC(=O)c1cnc(F)cn1 landed at 0.27

Quick note, logP for CCCCCCCCCCOC(=O)c1cnc(F)cn1 landed at 5.08

Quick note, logP for CCCCCCCCCCCOC(=O)c1cnc(Cl)cn1 landed at 5.98

Quick note, logP for CCCCCCOC(=O)c1cnc(F)cn1 landed at 2.96

Quick note, logP for CCCCCCCCC(C)OC(=O)c1cnc(Cl)cn1 (centres undefined) landed at 4.75

Quick note, logP for CCCCCCC(C)OC(=O)c1cnc(F)cn1 (centres undefined) landed at 3.23

Quick note, logP for CCCCCCCCCCOC(=O)c1cnc(Cl)cn1 landed at 5.48

Quick note, logP for COC(=O)c1cnc(I)cn1 landed at 0.91

Quick note, logP for CCCCCCC(C)OC(=O)c1cnc(Cl)cn1 (centres undefined) landed at 3.63

Quick note, logP for CCCOC(=O)c1cnc(C)cn1 landed at 1.15

Quick note, logP for COC(=O)c1cnc(OC)cn1 landed at 0.74

Quick note, logP for CCCCCC(C)(CCCCC)OC(=O)c1cnc(Cl)cn1 landed at 5.82

Quick note, logP for O=C(OCc1ccccc1)c1cnccn1 landed at 1.49

Quick note, logP for CC(C)COC(=O)c1cnc(Cl)cn1 landed at 1.97

Quick note, logP for CC(C)(C)OC(=O)c1cnc(Cl)cn1 landed at 1.7

Quick note, logP for CCC(C)(CC)OC(=O)c1cnc(Cl)cn1 landed at 2.74

Quick note, logP for CCC(C)OC(=O)c1cnccn1 (centres undefined) landed at 1.05

Quick note, logP for CCCCCCCCCOC(=O)c1cnc(Cl)cn1 landed at 4.98

Quick note, logP for CCCOC(=O)c1cnc(Cl)cn1 landed at 1.67
